src = patent US20140056903A1

target: T1, monkey GFRα3 expressed with a C-terminal myc-myc-hexahistidine tag (monkey (Mf), UniProt O60609 32-374 (human entry), limits assumed)
T1 construct: also called MfGFRα3-mmh; MfGFRα3-mmH
T1 chain: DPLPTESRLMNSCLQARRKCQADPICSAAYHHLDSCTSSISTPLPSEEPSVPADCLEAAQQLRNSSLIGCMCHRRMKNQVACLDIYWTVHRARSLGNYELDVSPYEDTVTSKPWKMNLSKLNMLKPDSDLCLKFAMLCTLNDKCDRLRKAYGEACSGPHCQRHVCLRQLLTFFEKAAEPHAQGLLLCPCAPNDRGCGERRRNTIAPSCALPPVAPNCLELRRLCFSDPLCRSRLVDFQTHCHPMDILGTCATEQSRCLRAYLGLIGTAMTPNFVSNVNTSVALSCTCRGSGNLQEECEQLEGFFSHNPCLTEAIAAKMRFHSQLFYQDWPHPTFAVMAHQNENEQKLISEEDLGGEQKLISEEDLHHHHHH
measurement.description: SPR, Ab captured, 25C
measured.quantity: t1/2 (min)
Write the number in min without appending the unit.

Here are 2 binders together with their reported answers.
• H4H2364S (antibody, human IgG4, V domains shown, human IgG4 Fc (H4H)) VH: EVQLVESGGGLEQPGGSLRLSCAASGFTFSSYVMSWVRQVPGKGLEWVSVISGSGGSTYYADSVKGRFTISRDNSKNTLYLQMNSLRAEDTAVYYCAKPSSYSSSNFHYGMDVWGQGTTVTVSS VL: DIQMTQSPYSVSASVGDRVTITCRASQGISSWLAWYQQKPGRAPKLLIYAASSLQSGVPSRFSGSGSGTDFTLTISSLQPEDFATYYCQKTNSFPFTFGPGTKVEIK = 89
• H1M2236N (antibody, V domains shown, chimeric, human variable and mouse constant domains (H1M)) VH: EVQLLESGGNLVQPGGSLRLSCAASGFTFSSYAMTWVRQAPGKGLEWVSTISGSGTSTYYADSVKGRFTISRDNSRDTVFLQMNSLRAEDTAVYYCSKPSALRFLHWLCMDVWGQGTLVTVSS VL: DIQMTQSPSSLSAFVGDRVTITCRASQDIRNYLDWFQQKPGKAPKSLIYAASNLQSGVPSRFGGSGSGTDFTLTINSLQPEDFVTYYCQQYNSYPPTFGGGTKVEIK = 40

Now consider a different binder.
Summary for this binder, H1M2243N (antibody, V domains shown, chimeric, human variable and mouse constant domains (H1M)) VH: QVQLVQSGAEVKKPGASVKVSCKASGYTFTSYGIIWVRQAPGQGLEWMGWISGYNGNTNYTQNLQGRVTMTTDTSTTTAYMELRSLRSDDTAVYYCARWGIATRPYYYYGMDVWGQGTTVTVSS VL: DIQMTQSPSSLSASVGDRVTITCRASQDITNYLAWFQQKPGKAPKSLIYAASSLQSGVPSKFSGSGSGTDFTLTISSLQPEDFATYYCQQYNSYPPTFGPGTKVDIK : t1/2 is 18
